Measured IC50 values are reported for all entries that follow.
# system tested: UniProt:P12823
# protocol notes: Inhibition of Dengue virus type 2 NS5 RNA methyltransferase SAM site with 0.1 % TX100

COc1ccc2c(c1)C(CC(=O)O)CN2Cc1ccccc1 (stereo unspecified); > 100 µM

Enquiry: Consider the compound shown here: O=C(O)c1cnc2c([N+](=O)[O-])cccc2c1O What is its recorded IC50?
Return: 14.3 µM

Enquiry: Follow-up entry: NC(=O)C1=CN(Cc2ccccc2)C=CC1
Return: > 100 µM

----------
IC50 values for the molecules below.
# system tested: Genome polyprotein (dengue virus type 2, UniProt P12823)
# Sequence (P12823 2489-3388 limits assumed): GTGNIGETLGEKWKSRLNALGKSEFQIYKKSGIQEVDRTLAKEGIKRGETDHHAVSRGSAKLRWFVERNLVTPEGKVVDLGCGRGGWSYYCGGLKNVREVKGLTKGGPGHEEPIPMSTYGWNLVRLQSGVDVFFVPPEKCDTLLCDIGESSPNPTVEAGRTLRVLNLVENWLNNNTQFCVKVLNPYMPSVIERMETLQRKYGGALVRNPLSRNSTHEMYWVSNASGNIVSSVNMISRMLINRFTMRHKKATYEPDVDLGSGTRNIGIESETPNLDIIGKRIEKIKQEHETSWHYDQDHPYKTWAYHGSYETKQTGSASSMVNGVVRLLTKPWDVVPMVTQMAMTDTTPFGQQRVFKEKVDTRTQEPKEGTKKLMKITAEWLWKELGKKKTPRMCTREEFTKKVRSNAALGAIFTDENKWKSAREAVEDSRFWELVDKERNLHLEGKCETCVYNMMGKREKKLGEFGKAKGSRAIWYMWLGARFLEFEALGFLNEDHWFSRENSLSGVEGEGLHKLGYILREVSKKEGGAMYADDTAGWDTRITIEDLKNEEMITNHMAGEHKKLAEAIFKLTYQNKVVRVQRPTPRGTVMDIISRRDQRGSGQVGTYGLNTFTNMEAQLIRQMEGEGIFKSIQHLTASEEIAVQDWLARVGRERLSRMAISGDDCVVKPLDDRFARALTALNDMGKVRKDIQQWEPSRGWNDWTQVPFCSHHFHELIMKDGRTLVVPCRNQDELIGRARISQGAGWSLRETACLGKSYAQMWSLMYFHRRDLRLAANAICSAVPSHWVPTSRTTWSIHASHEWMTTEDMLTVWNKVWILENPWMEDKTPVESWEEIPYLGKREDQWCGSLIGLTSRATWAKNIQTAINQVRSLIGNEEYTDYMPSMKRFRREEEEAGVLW
# protocol notes: Inhibition of Dengue virus type 2 NS5 RNA methyltransferase by spin-down assay
Output spec: scalar in µM, unitless text.

// solved cases for IC50 follow
O=C(O)c1ccccc1/C=N/NC(=O)c1cc(-c2ccco2)nc2ccccc12; 4.34
COc1ccc(/C=C2/CN(CCCC(=O)O)C(=O)C2=O)cc1; 10.5

Next molecule, please.
Enquiry: Return IC50 measured with Genome polyprotein (dengue virus type 2, UniProt P12823) given this molecule: O=S(=O)(O)c1cccc(NNc2ccc(Nc3ccccc3)cc2)c1
Return: 10.7

----------
# system tested: Genome polyprotein (dengue virus type 2, UniProt P12823)
# protocol notes: Inhibition of Dengue virus type 2 NS5 RNA methyltransferase RNA site with 0.1 % TX100
metric: pIC50
Worth noting: pIC50 values are minus log10 of concentrations stated in mol/L.

O=C(O)CCC(=O)N1NC(c2c(O)nc3ccc(Cl)cc3c2-c2ccccc2)=C[C@@H]1c1ccc(Br)cc1; 4.35
Cc1ccc(Cl)cc1NS(=O)(=O)c1ccc(NS(=O)(=O)c2ccc3ccccc3c2)cc1; 4.19
O=C(O)c1ccccc1/C=N/NC(=O)c1cc(-c2ccco2)nc2ccccc12; 5.31

Enquiry: Look up pIC50 for this compound: O=S(=O)(O)c1cccc(NNc2ccc(Nc3ccccc3)cc2)c1
Return: 5.15

Enquiry: How about CCN(CC)c1ccc(/C=N\Nc2ccc(Cl)c(C(=O)O)c2)c(O)c1 ?
Return: 4.06

----------
Measured IC50 accompanies every entry in the list below.
# system tested: Genome polyprotein (dengue virus type 2, UniProt P12823)
# protocol notes: Inhibition of Dengue virus type 2 NS5 RNA methyltransferase SAM site
Return type: number; implicit unit µM.

O=C(Cn1ccc(=O)[nH]c1=O)Nc1ccc(O)c([N+](=O)[O-])c1; 29
O=C(CCCCC(=O)N/N=C/c1ccc(O)cc1O)N/N=C/c1ccc(O)cc1O; 4.29
O=C1C(=O)N(Cc2cccnc2)[C@H](c2cccc(Oc3ccccc3)c2)/C1=C(/O)c1ccco1; 12.8
Cc1cc(C(=O)CSc2nc(N)cc(=O)[nH]2)c(C)n1Cc1ccc2c(c1)OCO2; 16.1
COc1ccc2c(c1)C(CC(=O)O)CN2Cc1ccccc1 (stereo unspecified); 27.5

Enquiry: I am curious: what IC50 value has been reported for O=C(c1cccc([N+](=O)[O-])c1)c1no[n+]([O-])c1C(=O)c1cccc([N+](=O)[O-])c1 ?
Return: 31.4

Enquiry: Same lookup for COc1ccc(/C=C2/CN(CCCC(=O)O)C(=O)C2=O)cc1 , please.
Return: 8.78

Enquiry: Again, but for COc1ccc(CN(CC[C@@H](c2ccccc2)c2ccco2)C(=O)c2ccoc2)cc1
Return: 2.91

Enquiry: Can you check Cc1ccc(C)c(C(=O)C2=C(O)C(=O)N(CCc3ccccc3)[C@@H]2c2ccc(O)cc2)c1 next?
Return: 9.84

Enquiry: Same lookup for O=C(O)c1cnc2c([N+](=O)[O-])cccc2c1O , please.
Return: 14.3

Enquiry: What about Cc1ccccc1COc1ccc(C(=O)[C@@H]2C(=O)C(=O)N(Cc3ccncc3)[C@H]2c2cccc(O)c2)cc1 ?
Return: 9.62

Enquiry: Same question, O=C(O)c1ccc(S(=O)(=O)c2ccc(C(=O)O)cc2)cc1 this time
Return: 29.9

Enquiry: For NC(=O)C1=CN(Cc2ccccc2)C=CC1 then?
Return: 25.3

Enquiry: Next up: O=C1NC(=O)/C(=C\c2ccc(O)cc2)N1
Return: 27.6

Enquiry: Also, O=S(=O)(Nc1ccccc1)c1cc(S(=O)(=O)Nc2ccccc2)c2cc(O)ccc2c1 please.
Return: 21.1

Enquiry: Also, Cc1cc(O)c2c(c1)C(=O)c1cc(O)cc(O)c1C2=O [EMODIN] please.
Return: 16.9

----------
# system tested: Genome polyprotein (dengue virus type 2, UniProt P12823)
# protocol notes: Inhibition of Dengue virus type 2 NS5 RNA methyltransferase at 8 nM enzyme concentration
metric: IC50

Enquiry: Quick one: IC50 for O=S(=O)(O)c1cccc(NNc2ccc(Nc3ccccc3)cc2)c1 ?
Return: 7.62 µM

----------
# protocol notes: Cytotoxicity against human A549 cells after 48 hrs
# Type: cell-based
metric: CC50 at 48 h

Example cases with answers are listed next.
O=C(O)c1cnc2c([N+](=O)[O-])cccc2c1O; > 100 µM
O=C(O)c1ccccc1/C=N/NC(=O)c1cc(-c2ccco2)nc2ccccc12; > 100 µM
Cc1ccc(Cl)cc1NS(=O)(=O)c1ccc(NS(=O)(=O)c2ccc3ccccc3c2)cc1; 22.7 µM
COc1ccc(/C=C2/CN(CCCC(=O)O)C(=O)C2=O)cc1; > 100 µM
Cc1cc(O)c2c(c1)C(=O)c1cc(O)cc(O)c1C2=O [EMODIN]; 30.7 µM

Enquiry: For the molecule shown here, O=C(O)CCC(=O)N1NC(c2c(O)nc3ccc(Cl)cc3c2-c2ccccc2)=C[C@@H]1c1ccc(Br)cc1 , give the reported CC50 at 48 h.
Return: > 100 µM

Enquiry: Consider next the molecule CCN(CC)c1ccc(/C=N\Nc2ccc(Cl)c(C(=O)O)c2)c(O)c1 in the same way.
Return: 75.1 µM

Enquiry: Similarly, O=S(=O)(O)c1cccc(NNc2ccc(Nc3ccccc3)cc2)c1 ?
Return: > 100 µM

Enquiry: Okay, and O=C(O)COc1ccc(Br)cc1/C=C1\CC/C(=C\c2cc(Br)ccc2OCC(=O)O)C1=O ?
Return: > 100 µM

----------
Listed compounds paired with reported pEC50
# Tested on: dengue virus type 2
# protocol notes: Antiviral activity against Dengue virus type 2 infected in human A549 cells assessed as decrease in viral E protein production by cell-based flavivirus immunodetection assay
# Assay type: functional, organism-based
pEC50: −log10 of the molar value.

COc1ccc(/C=C2/CN(CCCC(=O)O)C(=O)C2=O)cc1; < 4.00
CCN(CC)c1ccc(/C=N\Nc2ccc(Cl)c(C(=O)O)c2)c(O)c1; 4.30
Cc1ccc(Cl)cc1NS(=O)(=O)c1ccc(NS(=O)(=O)c2ccc3ccccc3c2)cc1; 4.92
O=C(O)c1cnc2c([N+](=O)[O-])cccc2c1O; < 4.00
O=C(O)CCC(=O)N1NC(c2c(O)nc3ccc(Cl)cc3c2-c2ccccc2)=C[C@@H]1c1ccc(Br)cc1; < 4.00
O=C(O)COc1ccc(Br)cc1/C=C1\CC/C(=C\c2cc(Br)ccc2OCC(=O)O)C1=O; < 4.00

Enquiry: Please give the measured pEC50 for this compound: O=C(O)c1ccccc1/C=N/NC(=O)c1cc(-c2ccco2)nc2ccccc12
Return: < 4.00

Enquiry: Same lookup for O=S(=O)(O)c1cccc(NNc2ccc(Nc3ccccc3)cc2)c1 , please.
Return: < 4.00

Enquiry: Another compound to check: Cc1cc(O)c2c(c1)C(=O)c1cc(O)cc(O)c1C2=O [EMODIN]
Return: 4.96

----------
# system tested: Genome polyprotein (dengue virus type 2)
# protocol notes: Inhibition of Dengue virus type 2 NS5 RNA methyltransferase RNA site
metric: IC50 (µM)
Express the result in µM but write the number alone.

Examples with their reported IC50 follow.
O=C(O)CCC(=O)N1NC(c2c(O)nc3ccc(Cl)cc3c2-c2ccccc2)=C[C@@H]1c1ccc(Br)cc1; 4.42
N#Cc1c(NC(=O)c2cccc(S(=O)(=O)Nc3ccc(C(=O)O)cc3)c2)sc2c1CCCC2; 17.6
COc1cc(CNc2ccc(C(=O)O)cc2)ccc1OCc1ccccc1Cl; 13.2
O=C(O)COc1ccccc1/C=N\NC(=O)Cc1csc(Nc2cccc(C(F)(F)F)c2)n1; 12.4
O=C(N/N=C\c1ccccc1C(=O)O)c1ccc(COc2ccc3ccccc3c2)cc1; 8.81

Enquiry: What value of IC50 has been reported for the following compound? CCOc1cc(/C=C2\C(=O)N(c3ccc4ccccc4c3)N=C2C)ccc1OCCC(=O)O
Return: 7.11

Enquiry: Repeat with COc1cc(NS(=O)(=O)c2ccc(NC(=O)/C=C/c3cccc4ccccc34)cc2)nc(OC)n1
Return: 6.83

Enquiry: What do you have for O=C(O)COc1ccc(Br)cc1/C=C1\CC/C(=C\c2cc(Br)ccc2OCC(=O)O)C1=O ?
Return: 2.81

Enquiry: Next compound up: O=C(O)c1cccc(NC(=O)c2ccc(CSc3ccc(Br)cc3)cc2)c1
Return: 7.99

Enquiry: Entry O=C(O)c1ccccc1C(=O)Nc1nc(-c2ccc3ccccc3c2)cs1 please
Return: 14.5

Enquiry: Lookup Cc1ccc(Cl)cc1NS(=O)(=O)c1ccc(NS(=O)(=O)c2ccc3ccccc3c2)cc1
Return: 9.28

Enquiry: Next compound up: Cc1ccc(C23CC4CC(CC(C(=O)Nc5cccc(C(=O)O)c5)(C4)C2)C3)cc1
Return: 37.5

Enquiry: Next: Cc1cc(/C=N\NC(=O)Nc2ccccc2)c(C)n1-c1cc(C(=O)O)cc(C(=O)O)c1
Return: 20.3

Enquiry: Try Cc1c(CC(=O)N[C@@H](Cc2c[nH]c3ccc(O)cc23)C(=O)O)c(=O)oc2cc3occ(C(C)(C)C)c3cc12 next.
Return: 11.9

Enquiry: // same read-out, input: COc1cc(/C=C2/NC(=O)N(Cc3ccc(Cl)cc3Cl)C2=O)ccc1O[C@H](C)C(=O)O
Return: 11.3

Enquiry: Param item: O=C(O)c1ccccc1/C=N/NC(=O)c1cc(-c2ccco2)nc2ccccc12
Return: 4.8

Enquiry: Now the same for CCN(CC)c1ccc(/C=N\Nc2ccc(Cl)c(C(=O)O)c2)c(O)c1
Return: 13.5

Enquiry: Record: O=S(=O)(O)c1cccc(NNc2ccc(Nc3ccccc3)cc2)c1
Return: 7.56
